- tgt: T1, human MASP-3 CCP1-CCP2-SP fragment (human)
- T1 chain: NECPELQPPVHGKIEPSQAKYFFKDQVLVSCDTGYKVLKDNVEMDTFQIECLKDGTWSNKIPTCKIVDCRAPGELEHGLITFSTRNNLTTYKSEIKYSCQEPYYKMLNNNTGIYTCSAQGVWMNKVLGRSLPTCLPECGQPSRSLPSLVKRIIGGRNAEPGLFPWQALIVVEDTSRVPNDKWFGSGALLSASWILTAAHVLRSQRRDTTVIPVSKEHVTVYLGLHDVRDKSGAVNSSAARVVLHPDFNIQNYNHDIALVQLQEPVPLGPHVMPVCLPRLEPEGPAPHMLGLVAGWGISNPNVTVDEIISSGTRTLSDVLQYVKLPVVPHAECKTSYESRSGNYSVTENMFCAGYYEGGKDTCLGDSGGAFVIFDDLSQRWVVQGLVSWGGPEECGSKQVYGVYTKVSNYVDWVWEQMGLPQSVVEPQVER
- method.notes: cell-based or functional assay
For each entry below, report its inhibition of MASP-3-dependent fluorogenic tripeptide (BOC-V-P-R-AMC) cleavage value.
Your answer should be a plain number; it is taken to be in nM.

*Q* Tell me its inhibition of MASP-3-dependent fluorogenic tripeptide (BOC-V-P-R-AMC) cleavage given MASP-3 mAb 1A10 (mouse-human chimeric IgG4) (antibody, V domains shown, The light chain of 1A10 was not identified) VH: QVQLKQSGPELVKPGASVKLSCKASGYTFTSNDINWVKQRPGQGLEWIGWIYPRDGTTKYNEKFTDKATLTVDVSSSTAFMELHRLTSEDSAVYFCSSVEDSYWGQGTLVTVSS VL: DIVMTQSPSSLAVSAGEKVTMSCKSSQSLLISRTRKNYLSWYQQKPGQSPKLLIYWASTRESGVPDRFTGSGSGTDFTLTISSVQAEDLAVYYCKQSYNLYTFGGGTKLEIKR as the entry.
*A* 29.8

*Q* Name the recorded inhibition of MASP-3-dependent fluorogenic tripeptide (BOC-V-P-R-AMC) cleavage of the item MASP-3 mAb 4B6 (mouse-human chimeric IgG4) (antibody, V domains shown) VH: QVQLKQSGPELVKPGASVKLSCKASGYTFTSNDINWVKQRPGQGLEWIGWIYPRDGTTKYNEEFTDKATLTVDVSSSTAFMELHSLTSEDSAVYFCSSVEDSYWGQGTLVTVSS VL: DIVMTQSPSSLAVSAGEKVTMSCKSSQSLLISRTRKNYLSWYQQKPGQSPKLLIYWASTRESGVPDRFTGSGSGTDFTLTISSVQAEDLAVYYCKQSYNLYTFGGGTKLEIKR in your answer.
*A* 26

*Q* Determine its reported inhibition of MASP-3-dependent fluorogenic tripeptide (BOC-V-P-R-AMC) cleavage: MASP-3 mAb 1G4 (mouse-human chimeric IgG4) (antibody, V domains shown) VH: QVQLKQSGAELMKPGASVKLACKATGYTFTGYWIEWIKQRPGQGLEWIGEMLPGSGSTHYNEKFKGKATFTADTSSNTAYMQLSGLTTEDSAIYYCVRSIDYWGQGTTLTVSS VL: DVLMTQTPLSLPVSLGEQASISCRSSQSLVQSNGNTYLHWYLQKPGQSPKLLIYKVSNRFSGVPDRFSGSGSGTDFTLKISRVEAEDLGVYFCSQSTHVPPTFGGGTKLEIKR
*A* 29.6
